experiment: Oral bioavailability in monkey; assay type: ADME, organism-based, Macaca mulatta; details: rhesus monkey, in vivo
Quantity: bioavailability

For `C/C(=N\c1ccc2c(c1)[C@@H](NC(=O)c1ccc(-c3ccccc3)cc1)[C@H](O)C2)N(C)Cc1ccc(F)cc1` the molecule record lists bioavailability as 46%

====

target: Muscarinic acetylcholine receptor M5 (Homo sapiens, UniProt P08912); assay: Agonist activity at human muscarinic M5 receptor expressed in CHO cells after 30 mins by GTPgamma35S binding assay; assay type: functional, cell-based; conditions: read-out: EC50
Sequence (P08912 whole entry): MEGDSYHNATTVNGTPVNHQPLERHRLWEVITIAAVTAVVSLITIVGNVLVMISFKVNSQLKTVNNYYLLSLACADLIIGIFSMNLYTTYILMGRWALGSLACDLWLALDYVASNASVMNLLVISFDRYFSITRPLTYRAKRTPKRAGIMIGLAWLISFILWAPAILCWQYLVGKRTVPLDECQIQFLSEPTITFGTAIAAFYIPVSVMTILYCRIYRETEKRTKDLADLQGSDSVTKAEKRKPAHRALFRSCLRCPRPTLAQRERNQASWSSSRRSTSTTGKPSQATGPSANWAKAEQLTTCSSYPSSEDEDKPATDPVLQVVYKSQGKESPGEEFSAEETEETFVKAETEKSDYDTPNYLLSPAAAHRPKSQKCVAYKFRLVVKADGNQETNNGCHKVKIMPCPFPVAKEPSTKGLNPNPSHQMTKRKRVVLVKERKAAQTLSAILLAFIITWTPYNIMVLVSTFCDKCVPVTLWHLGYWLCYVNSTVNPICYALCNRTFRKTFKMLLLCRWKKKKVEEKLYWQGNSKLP
Quantity: pEC50
Just so you know, pEC50 here is -log10 of the concentration in molar units; reply with that number alone.

compound_smiles=C#CCO[C@H]1CN2CCC1CC2 quantity=pEC50 data_value=6.37

Now look at this one.
Summary: `CO/N=C(\C#N)[C@H]1CN2CCC1CC2` , Muscarinic acetylcholine receptor M5 (Homo sapiens, UniProt P08912), pEC50 = 6.91

====

biological target: Muscarinic acetylcholine receptor M2 (Homo sapiens, UniProt P08172); assay: Agonist activity at human muscarinic M2 receptor expressed in CHO cells after 30 mins by GTPgamma35S binding assay
Sequence (P08172 whole entry): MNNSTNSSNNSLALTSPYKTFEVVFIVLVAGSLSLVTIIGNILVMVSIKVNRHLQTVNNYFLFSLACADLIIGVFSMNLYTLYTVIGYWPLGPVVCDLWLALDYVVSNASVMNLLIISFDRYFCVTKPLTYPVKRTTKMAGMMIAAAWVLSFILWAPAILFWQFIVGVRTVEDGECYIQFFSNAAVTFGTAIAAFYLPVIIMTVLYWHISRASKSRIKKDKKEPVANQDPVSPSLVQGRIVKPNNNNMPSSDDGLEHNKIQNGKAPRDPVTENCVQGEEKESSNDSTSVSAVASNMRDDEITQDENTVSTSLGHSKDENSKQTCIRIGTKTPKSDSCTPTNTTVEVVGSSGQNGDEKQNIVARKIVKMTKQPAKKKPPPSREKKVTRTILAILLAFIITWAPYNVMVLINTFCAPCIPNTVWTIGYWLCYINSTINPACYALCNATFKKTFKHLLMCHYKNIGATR
Quantity: pEC50
Just so you know, pEC50 here is -log10 of the concentration in molar units; reply with that number alone.

compound_smiles=C/C(=N\c1ccc2c(c1)[C@@H](NC(=O)c1ccc(C(F)(F)F)cc1)[C@H](O)C2)N(C)Cc1ccc(F)cc1 data_value=6.76

For `C/C(=N\c1ccc2c(c1)[C@@H](NC(=O)c1ccc(Br)cc1)[C@H](O)C2)N(C)Cc1ccc(F)cc1` the molecule record lists pEC50 as 6.22

For `C/C(=N\c1ccc2c(c1)[C@@H](NC(=O)c1ccc(C)cc1)[C@H](O)C2)N(C)Cc1ccc(F)cc1` the molecule record lists pEC50 as 7.18

For `C#CCO[C@H]1CN2CCC1CC2` the molecule record lists pEC50 as 6.07

====

target: UniProt:P08172; experiment: Agonist activity at human muscarinic M2 receptor expressed in CHO cells after 30 mins by GTPgamma35S binding assay
As shown below, each of these molecules has a reported EC50 value.
Express it in nM; write the number only.

compound_smiles=C/C(=N\c1ccc2c(c1)[C@@H](NC(=O)c1ccc(F)cc1)[C@H](O)C2)N(C)Cc1ccc(F)cc1 target_under_test=UniProt:P08172 quantity=EC50 units_label=nM data_value=242
compound_smiles=C/C(=N\c1ccc2c(c1)[C@@H](NC(=O)c1ccc(Cl)cc1)[C@H](O)C2)N(C)Cc1ccc(F)cc1 target_under_test=UniProt:P08172 quantity=EC50 units_label=nM data_value=65.5
compound_smiles=C/C(=N\c1ccc2c(c1)[C@@H](NC(=O)c1ccc(Br)cc1)[C@H](O)C2)NCc1ccccc1F target_under_test=UniProt:P08172 quantity=EC50 units_label=nM data_value=118

Now look at this one.
For `COc1ccc(CCN/C(C)=N/c2ccc3c(c2)[C@@H](NC(=O)c2ccc(Br)cc2)[C@H](O)C3)cc1` the molecule record lists EC50 as 411

====

Biological target: Muscarinic acetylcholine receptor M1 (Homo sapiens)
Sequence (whole entry): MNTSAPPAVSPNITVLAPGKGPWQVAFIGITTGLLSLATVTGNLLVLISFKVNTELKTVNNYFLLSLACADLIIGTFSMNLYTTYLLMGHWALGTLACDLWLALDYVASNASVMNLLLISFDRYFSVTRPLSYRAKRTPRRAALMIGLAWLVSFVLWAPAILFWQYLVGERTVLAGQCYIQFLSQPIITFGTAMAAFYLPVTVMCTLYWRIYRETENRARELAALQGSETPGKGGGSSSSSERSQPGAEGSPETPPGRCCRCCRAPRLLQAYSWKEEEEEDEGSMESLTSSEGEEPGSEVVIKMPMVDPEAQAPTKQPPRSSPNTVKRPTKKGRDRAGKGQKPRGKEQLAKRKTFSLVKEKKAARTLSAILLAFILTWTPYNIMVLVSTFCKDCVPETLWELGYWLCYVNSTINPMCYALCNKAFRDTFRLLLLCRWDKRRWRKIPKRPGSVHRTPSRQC
Assay: Agonist activity at human muscarinic M1 receptor expressed in CHO cells after 30 mins by GTPgamma35S binding assay relative to oxotremorine-M
Format: functional, cell-based
Quantity: Efficacy (%)
Express it in %; write the number only.

compound_smiles=C/C(=N\c1ccc2c(c1)[C@@H](NC(=O)c1ccc(-c3ccccc3)cc1)[C@H](O)C2)N(C)Cc1ccc(F)cc1 target_under_test="Muscarinic acetylcholine receptor M1 (Homo sapiens)" data_value=110

For `COc1ccc(CCN/C(C)=N/c2ccc3c(c2)[C@@H](NC(=O)c2ccc(Br)cc2)[C@H](O)C3)cc1` the molecule record lists Efficacy as 84.5

For `C/C(=N\c1ccc2c(c1)[C@@H](NC(=O)c1ccc(Br)cc1)[C@H](O)C2)N(C)CCc1ccc(F)cc1` the molecule record lists Efficacy as 68.5

For `C/C(=N\c1ccc2c(c1)[C@@H](NC(=O)c1ccc(Br)cc1)[C@H](O)C2)NCCc1ccc(F)cc1` the molecule record lists Efficacy as 90.6

For `C/C(=N\c1ccc2c(c1)[C@@H](NC(=O)c1ccc(Br)cc1)[C@H](O)C2)N(C)c1ccc(F)cc1` the molecule record lists Efficacy as 31.5

For `COc1cccc(CN/C(C)=N/c2ccc3c(c2)[C@@H](NC(=O)c2ccc(Br)cc2)[C@H](O)C3)c1` the molecule record lists Efficacy as 60

For `C/C(=N\c1ccc2c(c1)[C@@H](NC(=O)c1ccc(Br)cc1)[C@H](O)C2)NCc1cccc(F)c1` the molecule record lists Efficacy as 94

For `COc1ccc(C(=O)N[C@@H]2c3cc(/N=C(\C)N(C)Cc4ccc(F)cc4)ccc3C[C@H]2O)cc1` the molecule record lists Efficacy as 93.2

For `C/C(=N\c1ccc2c(c1)[C@@H](NC(=O)c1ccc(Br)cc1)[C@H](O)C2)NCc1ccccc1F` the molecule record lists Efficacy as 78.5

For `C/C(=N\c1ccc2c(c1)[C@@H](NC(=O)c1ccc(C)cc1)[C@H](O)C2)N(C)Cc1ccc(F)cc1` the molecule record lists Efficacy as 106

For `COc1ccccc1CN/C(C)=N/c1ccc2c(c1)[C@@H](NC(=O)c1ccc(Br)cc1)[C@H](O)C2` the molecule record lists Efficacy as 71.5

For `COc1ccc(N/C(C)=N/c2ccc3c(c2)[C@@H](NC(=O)c2ccc(Br)cc2)[C@H](O)C3)cc1` the molecule record lists Efficacy as 35.3

====

As shown below, each of these molecules has a reported pEC50 value.
target: Muscarinic acetylcholine receptor M1 (Homo sapiens); experiment: Agonist activity at human muscarinic M1 receptor expressed in CHO cells after 30 mins by GTPgamma35S binding assay
Just so you know, pEC50 here is -log10 of the concentration in molar units; reply with that number alone.

compound_smiles=COc1cccc(CN/C(C)=N/c2ccc3c(c2)[C@@H](NC(=O)c2ccc(Br)cc2)[C@H](O)C3)c1 quantity=pEC50 data_value=6.70
compound_smiles=C/C(=N\c1ccc2c(c1)[C@@H](NC(=O)c1ccc(Br)cc1)[C@H](O)C2)NCc1cccc(F)c1 quantity=pEC50 data_value=7.32
compound_smiles=COc1ccc(C(=O)N[C@@H]2c3cc(/N=C(\C)N(C)Cc4ccc(F)cc4)ccc3C[C@H]2O)cc1 quantity=pEC50 data_value=6.78
compound_smiles=C/C(=N\c1ccc2c(c1)[C@@H](NC(=O)c1ccc(C)cc1)[C@H](O)C2)N(C)Cc1ccc(F)cc1 quantity=pEC50 data_value=7.31
compound_smiles=C/C(=N\c1ccc2c(c1)[C@@H](NC(=O)c1ccc(Br)cc1)[C@H](O)C2)NCc1ccccc1F quantity=pEC50 data_value=7.06

For `C/C(=N\c1ccc2c(c1)[C@@H](NC(=O)c1ccc(Cl)cc1)[C@H](O)C2)N(C)Cc1ccc(F)cc1` the molecule record lists pEC50 as 7.51

For `CO/N=C(\C#N)[C@H]1CN2CCC1CC2` the molecule record lists pEC50 as 7.20

For `C/C(=N\c1ccc2c(c1)[C@@H](NC(=O)c1ccc(Br)cc1)[C@H](O)C2)N(C)Cc1ccc(F)cc1` the molecule record lists pEC50 as 6.81

For `C/C(=N\c1ccc2c(c1)[C@@H](NC(=O)c1ccc(Br)cc1)[C@H](O)C2)N(C)CCc1ccc(F)cc1` the molecule record lists pEC50 as 7.09

For `C/C(=N\c1ccc2c(c1)[C@@H](NC(=O)c1ccc(C(F)(F)F)cc1)[C@H](O)C2)N(C)Cc1ccc(F)cc1` the molecule record lists pEC50 as 7.44

For `C/C(=N\c1ccc2c(c1)[C@@H](NC(=O)c1ccc(Br)cc1)[C@H](O)C2)NCc1ccc(F)cc1` the molecule record lists pEC50 as 7.68

For `COc1ccc(CN/C(C)=N/c2ccc3c(c2)[C@@H](NC(=O)c2ccc(Br)cc2)[C@H](O)C3)cc1` the molecule record lists pEC50 as 6.08

For `COc1ccccc1CN/C(C)=N/c1ccc2c(c1)[C@@H](NC(=O)c1ccc(Br)cc1)[C@H](O)C2` the molecule record lists pEC50 as 6.24

For `C/C(=N\c1ccc2c(c1)[C@@H](NC(=O)c1ccc(F)cc1)[C@H](O)C2)N(C)Cc1ccc(F)cc1` the molecule record lists pEC50 as 6.41
